biological target: T1, Human VEGF 165 (human, UniProt P15692-4 27-191); experiment: BLI; KD after 14 days at 37 °C against KD at t = 0
T1 construct: Loaded on the BLI probe as the ligand; also called BLI ligand Human VEGF 165 (Avi tag, R&D Systems AVI-293-050); not shown: Avi tag
T1 sequence (P15692 other isoform, or with tags, fused parts or gaps limits assumed): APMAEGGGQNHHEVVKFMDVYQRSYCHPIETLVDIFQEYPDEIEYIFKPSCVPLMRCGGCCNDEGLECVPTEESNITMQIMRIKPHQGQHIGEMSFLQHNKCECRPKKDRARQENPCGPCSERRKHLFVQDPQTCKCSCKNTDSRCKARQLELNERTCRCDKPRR
attribute_measured: Change in KD to t = 0 (fold)
Report as a plain number; the unit fold is understood.

Query: Consider the binder shown here: Conjugate 20 (anti-VEGF VHH SEQ ID NO: 91 on hyaluronic acid, intermediate 2-8) (VHH, peptide bound through the organic linker MP2H to hyaluronic acid (830 kDa); site of attachment not stated, Multivalent peptide-hyaluronic acid conjugate (MVP); peptide valency 91; Method 2 intermediate; also called BI VHH anti-VEGF MVP) VHH: DVQLVESGGGLVQPGGSLRLSCAASGRTFSSYSMGWFRQAPGKEREFVVAISKGGYKYDAVSLEGRFTISRDNAKNTVYLQINSLRPEDTAVYYCASSRAYGSSRLRLADTYEYWGQGTLVTVSS What is its recorded Change in KD to t = 0?
Reply: 1440

Query: Consider the binder shown here: Conjugate 2 (anti-VEGF DARPin SEQ ID NO: 92 on hyaluronic acid, intermediate 1-7) (designed binder, peptide bound through the organic linker MP2H to hyaluronic acid (830 kDa); site of attachment not stated, Multivalent peptide-hyaluronic acid conjugate (MVP); peptide valency 117; Method 1 intermediate; also called DARPin MVP (Method 1)) GSDLDKKLLEAARAGQDDEVRILMANGADVNARDSTGWTPLHLAAPWGHPEIVEVLLKNGADVNAADFQGWTPLHLAAAVGHLEIVEVLLKYGADVNAQDKFGKTAFDISIDNGNEDLAEILQKAAGGGSGGGS What is its recorded Change in KD to t = 0?
Reply: 1

Query: Consider the binder shown here: Conjugate 18 (anti-VEGF VHH SEQ ID NO: 91 on hyaluronic acid, intermediate 1-7) (VHH, peptide bound through the organic linker MP2H to hyaluronic acid (830 kDa); site of attachment not stated, Multivalent peptide-hyaluronic acid conjugate (MVP); peptide valency 88; Method 1 intermediate; also called BI VHH anti-VEGF MVP) VHH: DVQLVESGGGLVQPGGSLRLSCAASGRTFSSYSMGWFRQAPGKEREFVVAISKGGYKYDAVSLEGRFTISRDNAKNTVYLQINSLRPEDTAVYYCASSRAYGSSRLRLADTYEYWGQGTLVTVSS What is its recorded Change in KD to t = 0?
Reply: 3670

Query: Consider the binder shown here: Conjugate 22 (anti-VEGF VHH SEQ ID NO: 91 with aH linker SEQ ID NO: 21 on hyaluronic acid, intermediate 1-10) (VHH, C-terminal Cys of the peptide linker bound by its thiol to the maleimide of the organic linker MP2H on hyaluronic acid (830 kDa), Multivalent peptide-hyaluronic acid conjugate (MVP); peptide valency 18; Method 1 intermediate; also called BI VHH anti-VEGF MVP) VHH: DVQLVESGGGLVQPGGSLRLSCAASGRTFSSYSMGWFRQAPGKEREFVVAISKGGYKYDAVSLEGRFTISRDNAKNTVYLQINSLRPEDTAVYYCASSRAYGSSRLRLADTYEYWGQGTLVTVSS What is its recorded Change in KD to t = 0?
Reply: 142
